B1: LCOR (parent)
chain: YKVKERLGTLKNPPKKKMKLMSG

# Variants of: B1
# Protocol Description: protein stability index of a GFP-peptide fusion (GPS, HEK-293T) (PSI 1-6); higher = more stable;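 further: lentivirally expressed fusions sorted by FACS into six bins by GFP to DsRed ratio, PSI derived from sequencing read proportions per bin multiplied by bin number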
# Condition Info: c terminus: native
We use 2 as the dividing line for protein stability index: on or above the line is 1, below is -1.

Kindly determine if protein stability index recorded for "K2Y" is above or exactly 2.
1

Kindly determine if protein stability index recorded for "M21N" is above or exactly 2.
1

Kindly determine if protein stability index recorded for "M21S" is above or exactly 2.
-1

Kindly determine if protein stability index recorded for "S22V" is above or exactly 2.
1

Kindly determine if protein stability index recorded for "R6K" is above or exactly 2.
-1

Kindly determine if protein stability index recorded for "G23C" is above or exactly 2.
1

Kindly determine if protein stability index recorded for "E5S" is above or exactly 2.
1

Kindly determine if protein stability index recorded for "K2D" is above or exactly 2.
-1

Kindly determine if protein stability index recorded for "V3H" is above or exactly 2.
-1

Kindly determine if protein stability index recorded for "T9Y" is above or exactly 2.
1
